# systemTested: MGL (Rattus norvegicus)
# Construct: one g rat brain was homogenized using a Polytron homogenizer; from tissue; host or cells: rat brain homogenate
# Sequence (Q8R431 whole entry): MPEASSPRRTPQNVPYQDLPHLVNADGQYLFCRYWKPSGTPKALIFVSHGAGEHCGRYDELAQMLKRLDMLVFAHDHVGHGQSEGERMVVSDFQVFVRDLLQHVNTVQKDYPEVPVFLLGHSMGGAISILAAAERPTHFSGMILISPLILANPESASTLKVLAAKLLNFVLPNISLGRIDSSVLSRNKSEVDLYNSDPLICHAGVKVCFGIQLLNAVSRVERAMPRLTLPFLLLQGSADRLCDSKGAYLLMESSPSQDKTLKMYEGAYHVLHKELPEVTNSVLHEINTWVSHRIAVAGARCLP
# testDescription: 2-AG accumulation assay in rat brain homogenate
# Format: biochemical
# measurementSetup: rat brain homogenate; compound 1 μM; 2-AG accumulation as percent of vehicle; read-out: Rat Brain 2AG % VehCntrl (%) @ 1 μM
Measured 2-AG accumulation, % of vehicle control at 1 µM determines class: lo (below 400%), med (400% to below 600%), hi (600% or more)

Here are 2 compounds together with their reported answers.
>  <compound>
O=C(c1ccc(-c2cccc(C(F)(F)F)c2)c(Cl)c1)N1CC(N2CCN(C(=O)c3cscn3)CC2)C1 [Cpd 1102]

>  <cat>
hi

$$$$
>  <compound>
O=C(c1ccc2c(c1)CCCN2C(=O)C1CCCCC1)N1CC(N2CCN(C(=O)c3nccs3)CC2)C1 [Cpd 360]

>  <cat>
hi

$$$$

**Query** Categorize the following entry: Cc1cc(-c2ccc(F)c(Cl)c2)ccc1C(=O)N1CC(N2CCN(C(=O)c3cscn3)CC2)C1 [Cpd 253]
**Result** lo

* * *

# systemTested: mutant MGL (Homo sapiens, UniProt Q99685, L169S/L176S)
# Sequence (Q99685 whole entry L169S/L176S): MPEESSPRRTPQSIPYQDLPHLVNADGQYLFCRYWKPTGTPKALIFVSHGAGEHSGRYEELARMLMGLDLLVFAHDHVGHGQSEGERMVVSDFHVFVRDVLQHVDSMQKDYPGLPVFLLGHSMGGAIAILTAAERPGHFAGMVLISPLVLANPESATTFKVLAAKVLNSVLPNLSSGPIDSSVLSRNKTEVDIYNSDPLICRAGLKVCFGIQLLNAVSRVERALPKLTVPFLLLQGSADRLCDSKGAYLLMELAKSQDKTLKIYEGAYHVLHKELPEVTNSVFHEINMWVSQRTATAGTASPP
# testDescription: MGL ThermoFluor assay - mutant
# Assay type: binding
# measurementSetup: ThermoFluor, compound concentration measured by qNMR, read-out: MGL mutant ThermoFluor qKd (μM) (using qNMR conc.)
readoutLabel: Kd (µM)
Answers are plain numbers, in µM.

Answered cases to consult:
>  <compound>
O=C(c1nccs1)N1CCN(C2CN(C(=O)c3sc4cc(C(F)(F)F)ccc4c3Cl)C2)C(C(F)(F)F)C1 (centres unmarked)

>  <systemTested>
mutant MGL (Homo sapiens, UniProt Q99685, L169S/L176S)

>  <Kd (µM)>
1.2

$$$$
>  <compound>
O=C(c1ccccc1)N1CCN(C2CN(C(=O)c3ccc4c(ccn4-c4cc(F)ccc4F)c3)C2)CC1

>  <systemTested>
mutant MGL (Homo sapiens, UniProt Q99685, L169S/L176S)

>  <Kd (µM)>
0.195

$$$$

Could I get Kd for every one of these entries?
1. O=C(c1cc2cc(-c3ccc(F)cc3)cnc2o1)N1CC(N2CCN(C(=O)c3nccs3)CC2)C1
2. O=C(c1ccc2c(ccn2-c2cc(F)ccc2F)c1)N1CC(N2CCN(C(=O)c3nccs3)CC2)C1

**Result**
[0.765, 0.004]

Would you mind listing Kd for each of the following compounds?
1. O=C(c1cscn1)N1CCN(C2CN(C(=O)c3cc4nc(C(F)(F)F)ccc4[nH]3)C2)CC1
2. O=C(c1ccc(-c2cccc(C(F)(F)F)c2)cc1)N1CC(N2CCN(C(=O)c3ccc(Cl)o3)CC2)C1
3. O=C(c1cc2cc(-c3ccccc3)cnc2o1)N1CC(N2CCN(C(=O)c3nccs3)CC2)C1
4. Cc1cc(C(=O)N2CC(N3CCN(C(=O)c4nccs4)CC3)C2)sc1-c1ccc(C(F)(F)F)cc1

**Result**
[12.6, 0.005, 0.942, 0.008]

* * *

# systemTested: mutant MGL (Homo sapiens, UniProt Q99685, L169S/L176S)
# testDescription: MGL ThermoFluor assay - mutant
# Type: binding
# measurementSetup: ThermoFluor thermal stability binding assay, read-out: MGL mutant ThermoFluor Kd
Answer each item with its documented log10 of Kd.
Heads up, the numbers here are log10 of Kd in nM units.

A selection of reference data follows.
>  <chemicalSmiles>
O=C(c1ccc2c(-c3ccccc3)cccc2c1)N1CC(N2CCN(C(=O)c3nccs3)CC2)C1

>  <systemTested>
mutant MGL (Homo sapiens, UniProt Q99685, L169S/L176S)

>  <measuredValue>
0.04

$$$$
>  <chemicalSmiles>
O=C(c1ccc(-c2cccc(C(F)(F)F)c2)c(F)c1)N1CC(N2CCN(C(=O)c3cscn3)CC2)C1

>  <systemTested>
mutant MGL (Homo sapiens, UniProt Q99685, L169S/L176S)

>  <measuredValue>
0.78

$$$$
>  <chemicalSmiles>
O=C(c1ccc(-c2cccc(C(F)(F)F)c2)cc1)N1CC(N2CCN(C(=O)c3ccc[nH]3)CC2)C1

>  <systemTested>
mutant MGL (Homo sapiens, UniProt Q99685, L169S/L176S)

>  <measuredValue>
0.78

$$$$
>  <chemicalSmiles>
O=C(c1cscn1)N1CCN(C2CN(C(=O)c3nc(-c4ccccc4)oc3C(F)(F)F)C2)CC1

>  <systemTested>
mutant MGL (Homo sapiens, UniProt Q99685, L169S/L176S)

>  <measuredValue>
3.23

$$$$
>  <chemicalSmiles>
O=C(c1nccs1)N1CCN(C2CN(C(=O)c3cccc4oc(-c5cccc(Cl)c5)nc34)C2)CC1

>  <systemTested>
mutant MGL (Homo sapiens, UniProt Q99685, L169S/L176S)

>  <measuredValue>
1.04

$$$$

Quick request: log10 of Kd for each listed item, please.
1. O=C(c1ccc2c(c1)CCCN2c1ccc(C(F)(F)F)cc1)N1CC(N2CCN(C(=O)c3nccs3)CC2)C1
2. O=C(c1ccoc1)N1CCN(C2CN(C(=O)c3ccc(-c4ccccc4)cc3)C2)CC1
3. O=C(c1nccs1)N1CCN(C2CN(C(=O)c3cccc4oc(-c5ccccc5F)nc34)C2)CC1
4. O=C(c1cscn1)N1CCN(C2CN(C(=O)c3sc4c(F)c(C(F)(F)F)ccc4c3Cl)C2)CC1

**Result**
1: 0.74; 2: 2.05; 3: 1.23; 4: 0.00

Dear reader, for each entry below, please note its log10 of Kd.
1. O=C(c1cscn1)N1CCN(C2CN(C(=O)c3ccc(-c4ccc(F)c(Cl)c4)cc3Cl)C2)CC1
2. O=C(c1ccc2c(c1)CCCN2c1ncccn1)N1CC(N2CCN(C(=O)c3nccs3)CC2)C1
3. O=C(c1cscn1)N1CCN(C2CN(C(=O)c3cc(-c4ccccc4)oc3C(F)(F)F)C2)CC1
4. O=C(c1nccs1)N1CCN(C2CN(C(=O)c3ccccc3NCc3ccccc3)C2)CC1
5. Cc1oc(-c2ccccc2)cc1C(=O)N1CC(N2CCN(C(=O)c3cscn3)CC2)C1
6. O=C(c1ccc(-c2ccccc2)cc1)N1CC(N2CCN(C(=O)c3ccns3)CC2)C1
7. O=C(c1nccs1)N1CCN(C2CN(C(=O)c3ccc(-c4cccc(C(F)(F)F)c4)cc3Cl)C2)CC1

**Result**
[1.30, 2.36, 2.70, 2.52, 2.50, 2.40, 0.23]
